Origin of measurements: patent US20250250357A1

Assignment: determine reported OD450 for the given binders.
# MEASURED ON: T1, human MSLN-R3 protein (human, UniProt Q13421 487-598)
# T1 construct: also called hMSLN-R3
# ASSAY PROTOCOL: ELISA on coated antigen, antibody 0.01 nM
Answers are plain numbers, in OD450.

Illustrative cases are given below, each with its answer.
- BINDER: "F7.33.24-H8 (scFv, not shown: small tags and cut ends, also called S009-F7.33.24 humanized antibody VH2 + VL2) scFv: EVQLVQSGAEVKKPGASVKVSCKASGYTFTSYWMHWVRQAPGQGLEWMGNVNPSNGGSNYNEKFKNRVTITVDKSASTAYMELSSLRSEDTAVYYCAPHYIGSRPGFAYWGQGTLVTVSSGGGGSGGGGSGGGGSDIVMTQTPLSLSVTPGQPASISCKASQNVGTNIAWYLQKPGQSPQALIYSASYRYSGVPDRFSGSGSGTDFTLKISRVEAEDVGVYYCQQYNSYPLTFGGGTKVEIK"
  TEST RESULT: 0.05
- BINDER: "F7.33.24-H11 (scFv, not shown: small tags and cut ends, also called S009-F7.33.24 humanized antibody VH2a + VL2) scFv: EVQLVQSGAEVKKPGASVKVSCKASGYTFTSYWMHWVRQAPGQGLEWMGNVNPSNAGSNYNEKFKNRVTITVDKSASTAYMELSSLRSEDTAVYYCAPHYIGSRPGFAYWGQGTLVTVSSGGGGSGGGGSGGGGSDIVMTQTPLSLSVTPGQPASISCKASQNVGTNIAWYLQKPGQSPQALIYSASYRYSGVPDRFSGSGSGTDFTLKISRVEAEDVGVYYCQQYNSYPLTFGGGTKVEIK"
  TEST RESULT: 0.05

Prompt line: Find the recorded OD450 belonging to F7.33.24-H12 (scFv, not shown: small tags and cut ends, also called S009-F7.33.24 humanized antibody VH2a + VL3) scFv: EVQLVQSGAEVKKPGASVKVSCKASGYTFTSYWMHWVRQAPGQGLEWMGNVNPSNAGSNYNEKFKNRVTITVDKSASTAYMELSSLRSEDTAVYYCAPHYIGSRPGFAYWGQGTLVTVSSGGGGSGGGGSGGGGSDIVMTQTPLSLSVTPGQPASISCKASQNVGTNIAWYQQKPGQSPQALIYSASYRYSGVPDRFSGSGSGTDFTLKISRVEAEDVGVYYCQQYNSYPLTFGGGTKVEIK and report it.
Response line: 0.04
